Listed below: koff values for each entry.
- study-system: T1, HER3 extracellular domain recombinant protein (human, UniProt P21860 20-643)
- T1 construct: extracellular domain; also called HER3 extracellular domain protein; HER3 protein
- T1 sequence (P21860 20-643): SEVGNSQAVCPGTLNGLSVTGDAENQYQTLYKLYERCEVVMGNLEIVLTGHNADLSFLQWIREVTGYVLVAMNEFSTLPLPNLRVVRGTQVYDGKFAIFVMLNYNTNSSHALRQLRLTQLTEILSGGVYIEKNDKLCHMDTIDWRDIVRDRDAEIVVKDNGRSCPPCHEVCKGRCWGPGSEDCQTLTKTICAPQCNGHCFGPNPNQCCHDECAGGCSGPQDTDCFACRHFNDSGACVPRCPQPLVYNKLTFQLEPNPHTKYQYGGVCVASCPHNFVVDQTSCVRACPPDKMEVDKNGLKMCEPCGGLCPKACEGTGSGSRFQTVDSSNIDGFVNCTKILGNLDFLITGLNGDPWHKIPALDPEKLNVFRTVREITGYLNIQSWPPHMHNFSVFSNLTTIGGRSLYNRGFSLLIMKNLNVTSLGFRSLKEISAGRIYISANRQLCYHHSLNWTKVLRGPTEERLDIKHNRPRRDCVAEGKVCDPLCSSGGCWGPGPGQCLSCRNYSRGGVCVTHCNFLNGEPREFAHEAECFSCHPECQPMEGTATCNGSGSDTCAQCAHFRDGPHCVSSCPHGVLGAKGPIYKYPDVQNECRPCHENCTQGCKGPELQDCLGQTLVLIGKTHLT
- assay-procedure: SPR, ProteOn XPR36; antibody captured by goat anti-human antibody, HER3 extracellular domain 1.25-20 nM as analyte, Langmuir model
recorded-endpoint: koff (s⁻¹)

{"columns": ["binder", "unit-of-measure", "observed-value"],
 "data": [
  ["humanized antibody with VH77 back mutation (antibody, V domains shown) VH: QVQLVQSGAEVKKPGSSVKVSCKASGGTFSNYWIDWVRQAPGQGLEWMGEILPGSGGTDYNEKFKGRVTITADTSTNTAYMELSSLRSEDTAVYYCARDDYDVFAYWGQGTLVTVSS VL: DIVMTQSPGTLSLSPGERATLSCRSSKSLLHSNGITYLYWYQQKPGQAPRLLIYQMSNLASGIPDRFSGSGSGTDFTLTISRLEPEDFAVYYCAQNLELPWTFGQGTKVEIKR", "s⁻¹", 0.00327],
  ["humanized antibody with VH25 back mutation (antibody, V domains shown) VH: QVQLVQSGAEVKKPGSSVKVSCKATGGTFSNYWIDWVRQAPGQGLEWMGEILPGSGGTDYNEKFKGRVTITADTSTSTAYMELSSLRSEDTAVYYCARDDYDVFAYWGQGTLVTVSS VL: DIVMTQSPGTLSLSPGERATLSCRSSKSLLHSNGITYLYWYQQKPGQAPRLLIYQMSNLASGIPDRFSGSGSGTDFTLTISRLEPEDFAVYYCAQNLELPWTFGQGTKVEIKR", "s⁻¹", 0.00317],
  ["humanized antibody with VH1 back mutation (antibody, V domains shown) VH: EVQLVQSGAEVKKPGSSVKVSCKASGGTFSNYWIDWVRQAPGQGLEWMGEILPGSGGTDYNEKFKGRVTITADTSTSTAYMELSSLRSEDTAVYYCARDDYDVFAYWGQGTLVTVSS VL: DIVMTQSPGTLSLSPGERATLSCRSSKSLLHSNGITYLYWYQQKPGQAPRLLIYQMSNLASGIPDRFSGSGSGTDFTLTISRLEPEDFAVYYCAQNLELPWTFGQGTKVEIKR", "s⁻¹", 0.00382],
  ["1044 human-mouse chimeric antibody (antibody, V domains shown) VH: EVQLQQSGTELMKPGASVKISCKATGGTFSNYWIDWVKQRPGHGLEWIGEILPGSGGTDYNEKFKGKATFTADTSSNTAYMQLSSLTSEDSAVYYCARDDYDVFAYWGQGTLVTVSA VL: DIVMTQAAFSNPVTLGTSASISCRSSKSLLHSNGITYLYWYLQKPGQSPQLLIYQMSNLASGVPDRFSSSGSGTDFTLRISRVEAEDVGVYYCAQNLELPWTFGGGTKLEIKR", "s⁻¹", 0.000229]
]}

// provenance: patent US20210277144A1
